test: Pharmacokinetic experiment (blood concentration by HPLC); format: in vivo, mice; details: male, mouse, blood; mice; intravenous injection, 20mg/kg
VALUE_TYPE: half-life (min)
Write down the numeric answer in min and omit the unit.

Would you kindly share the measured half-life for C=CC1=C(C(=O)O)N2C(=O)[C@@H](NC(=O)/C(=N\O)c3csc(N)n3)[C@H]2SC1 [Cefdinir, reference compound] ?
21

---

assay: Pharmacokinetic experiment (blood concentration by HPLC); format: in vivo, mice; conditions: male, mouse, blood, po, 20 mg/kg, Oral administration, time 120 min, read-out: blood concentration, mouse-2
VALUE_TYPE: concentration at 120 min
Please append the unit to your numeric answer.

Would you kindly share the measured concentration at 120 min for CO/N=C(\C(=O)NC1C(=O)N2C(C(=O)O)=C(Sc3cc(N)nc(N)n3)CSC12)c1csc(N)n1 (stereo not shown) ?
480 ng/mL

---

experiment: Pharmacokinetic experiment (blood concentration by HPLC); format: in vivo, mice; conditions: male, mouse, blood, po, 20 mg/kg, Oral administration, time 60 min, read-out: blood concentration, mouse-2
VALUE_TYPE: concentration at 60 min (ng/mL)
Write down the numeric answer in ng/mL and omit the unit.

Would you kindly share the measured concentration at 60 min for CO/N=C(\C(=O)NC1C(=O)N2C(C(=O)O)=C(Sc3cc(N)nc(N)n3)CSC12)c1csc(N)n1 (stereo not shown) ?
610

---

experiment: Pharmacokinetic experiment (blood concentration by HPLC); format: in vivo, mice; details: male, mouse, blood, po, 20 mg/kg, Oral administration, time 180 min, read-out: blood concentration, mouse-1
VALUE_TYPE: concentration at 180 min (ng/mL)
Write down the numeric answer in ng/mL and omit the unit.

Would you kindly share the measured concentration at 180 min for CO/N=C(\C(=O)NC1C(=O)N2C(C(=O)O)=C(Sc3cc(N)nc(N)n3)CSC12)c1csc(N)n1 (stereo not shown) [Compound No. 25] ?
60

---

assay: Pharmacokinetic experiment (blood concentration by HPLC); format: in vivo, mice; settings: male, mouse, blood, intravenous, 20 mg/kg, Injection, time 10 min, read-out: average conc.
VALUE_TYPE: concentration at 10 min (ng/mL)
Write down the numeric answer in ng/mL and omit the unit.

Would you kindly share the measured concentration at 10 min for CO/N=C(\C(=O)NC1C(=O)N2C(C(=O)O)=C(Sc3cc(N)nc(N)n3)CSC12)c1csc(N)n1 (stereo not shown) [Compound No. 25] ?
29100

---

system: S. aureus; experiment: MIC against standard strains (agar dilution); assay type: cell-based; conditions: Staphylococcus aureus, Mueller-Hinton agar, 10^7 cfu/mℓ, 20 hours at 37°C
Item-by-item account of MIC
Write down the numeric answer in µg/mL and omit the unit.

compound="CO/N=C(\\C(=O)NC1C(=O)N2C(C(=O)O)=C(SCSc3cc(N)nc(N)n3)CSC12)c1csc(N)n1 (stereo not shown) [compound 4]" unit_abbreviation=µg/mL value_reported=0.25
compound="C=CC1=C(C(=O)O)N2C(=O)[C@@H](NC(=O)/C(=N\\O)c3csc(N)n3)[C@H]2SC1 [Cefdinir, reference compound]" unit_abbreviation=µg/mL value_reported=0.031
compound="CO/N=C(\\C(=O)NC1C(=O)N2C(C(=O)O)=C(SCSc3cc(N)nc(N)n3)CSC12)c1nc(N)sc1Cl (stereo not shown) [compound 8]" unit_abbreviation=µg/mL value_reported=0.25

Would you kindly share the measured MIC for CO/N=C(\C(=O)NC1C(=O)N2C(C(=O)O)=C(SCc3cc(N)nc(N)n3)CSC12)c1csc(N)n1 (stereo not shown) [compound 20] ?
2

Would you kindly share the measured MIC for CO/N=C(\C(=O)NC1C(=O)N2C(C(=O)O)=C(SCSc3nc(N)cc(N)n3)CSC12)c1csc(N)n1 (stereo not shown) [compound 3] ?
0.5

Would you kindly share the measured MIC for Nc1cc(N)nc(SCSC2=C(C(=O)O)N3C(=O)C(NC(=O)/C(=N\O)c4csc(N)n4)C3SC2)n1 (stereo not shown) [compound 5] ?
0.13

Would you kindly share the measured MIC for CC(C)(O/N=C(\C(=O)N[C@@H]1C(=O)N2C(C(=O)[O-])=C(C[n+]3ccccc3)CS[C@H]12)c1csc(N)n1)C(=O)O [Ceftazidime, reference compound] ?
4

---

Assay: Pharmacokinetic experiment (blood concentration by HPLC)
Assay type: in vivo, mice
Conditions: male, mouse, blood, po, 20 mg/kg, Oral administration, time 60 min, read-out: blood concentration, mouse-3
Description: Test example 2: Pharmacokinetic experiment Male mice, each of which has a body weight of […] were used in the present pharmacokinetic experiment. Test compounds were formulated into 1% of solution and then, the solution was administered by oral route and by injection with a dose of 20mg/kg, respectively. […] Concentrations of test compounds in blood were measured by HPLC quantitative analysis and based on the results, pharmacokinetic parameters were calculated.
VALUE_TYPE: concentration at 60 min (ng/mL)
Write down the numeric answer in ng/mL and omit the unit.

Would you kindly share the measured concentration at 60 min for CO/N=C(\C(=O)NC1C(=O)N2C(C(=O)O)=C(Sc3cc(N)nc(N)n3)CSC12)c1csc(N)n1 (stereo not shown) ?
260

---

experiment: Pharmacokinetic experiment (blood concentration by HPLC); type: in vivo, mice; conditions: male, mouse, blood, intravenous, 20 mg/kg, Injection, time 1 min, read-out: average conc.
VALUE_TYPE: concentration at 1 min (µg/mL)
Write down the numeric answer in µg/mL and omit the unit.

Would you kindly share the measured concentration at 1 min for CO/N=C(\C(=O)NC1C(=O)N2C(C(=O)O)=C(Sc3cc(N)nc(N)n3)CSC12)c1csc(N)n1 (stereo not shown) [Compound No. 25] ?
96.4

---

assay: Pharmacokinetic experiment (blood concentration by HPLC); assay type: in vivo, mice; details: male, mouse, blood, other: injection, 20 mg/kg, Injection, time 90 min, read-out: blood concentration, mouse-2
VALUE_TYPE: concentration at 90 min (ng/mL)
Write down the numeric answer in ng/mL and omit the unit.

Would you kindly share the measured concentration at 90 min for CO/N=C(\C(=O)NC1C(=O)N2C(C(=O)O)=C(Sc3cc(N)nc(N)n3)CSC12)c1csc(N)n1 (stereo not shown) [Compound No. 25] ?
2400

---

test: Pharmacokinetic experiment (blood concentration by HPLC); format: in vivo, mice; conditions: male, mouse, blood, po, 20 mg/kg, Oral administration, time 180 min, read-out: blood concentration, mouse-2
VALUE_TYPE: concentration at 180 min (ng/mL)
Write down the numeric answer in ng/mL and omit the unit.

Would you kindly share the measured concentration at 180 min for CO/N=C(\C(=O)NC1C(=O)N2C(C(=O)O)=C(Sc3cc(N)nc(N)n3)CSC12)c1csc(N)n1 (stereo not shown) ?
590

---

assay: Pharmacokinetic experiment (blood concentration by HPLC); assay type: in vivo, mice; settings: male, mouse, blood, other: injection, 20 mg/kg, Injection, time 90 min, read-out: average conc.
VALUE_TYPE: concentration at 90 min (µg/mL)
Write down the numeric answer in µg/mL and omit the unit.

Would you kindly share the measured concentration at 90 min for CO/N=C(\C(=O)NC1C(=O)N2C(C(=O)O)=C(Sc3cc(N)nc(N)n3)CSC12)c1csc(N)n1 (stereo not shown) ?
3.3

---

test system: S. pneumoniae; assay: MIC against standard strains (agar dilution); type: cell-based; conditions: Streptococcus pneumoniae, Mueller-Hinton agar, 10^7 cfu/mℓ, 20 hours at 37°C
Exam item: assign Y to entries whose MIC is below 0.5 µg/mL and N to entries at or above 0.5 µg/mL. Note that a value of exactly 0.5 µg/mL receives N.

Below are worked cases with known answers.
molecule="C=CC1=C(C(=O)O)N2C(=O)[C@@H](NC(=O)/C(=N\\O)c3csc(N)n3)[C@H]2SC1 [Cefdinir, reference compound]" measured_target="S. pneumoniae" label_class=N
molecule="Nc1cc(N)nc(SCSC2=C(C(=O)O)N3C(=O)C(NC(=O)/C(=N\\O)c4csc(N)n4)C3SC2)n1 (stereo not shown)" measured_target="S. pneumoniae" label_class=N
molecule="CO/N=C(\\C(=O)NC1C(=O)N2C(C(=O)O)=C(SCSc3nc(N)cc(N)n3)CSC12)c1csc(N)n1 (stereo not shown)" measured_target="S. pneumoniae" label_class=Y
molecule="CO/N=C(\\C(=O)NC1C(=O)N2C(C(=O)O)=C(SCc3cc(N)nc(N)n3)CSC12)c1csc(N)n1 (stereo not shown)" measured_target="S. pneumoniae" label_class=N

Now look at this entry.
Criterion: MIC strictly below 0.5 µg/mL. Is it met by Nc1cc(SCSC2=C(C(=O)O)N3C(=O)C(NC(=O)/C(=N\O)c4nc(N)sc4Cl)C3SC2)nc(N)n1 (stereo not shown) ?
Y

---

test: Pharmacokinetic experiment (blood concentration by HPLC); assay type: in vivo, mice; settings: male, mouse, blood, intravenous; mice; Injection, 20mg/kg
VALUE_TYPE: AUC (ng·h/mL)
Write down the numeric answer in ng·h/mL and omit the unit.

Would you kindly share the measured AUC for Nc1cc(SCSC2=C(C(=O)O)N3C(=O)C(NC(=O)/C(=N\O)c4nc(N)sc4Cl)C3SC2)nc(N)n1 (centres unmarked) [compound 7] ?
107000

Would you kindly share the measured AUC for C=CC1=C(C(=O)O)N2C(=O)[C@@H](NC(=O)/C(=N\O)c3csc(N)n3)[C@H]2SC1 [Cefdinir, reference compound] ?
50000
